The origin of these recorded values is patent US20150191469A1.

Overview of recorded IC50 for various compounds
tested on: HIV; assay: MT4 assay: antiviral HIV activity (cell protection, cell titer glo readout at 96 hours); type: cell-based; conditions: Human immunodeficiency virus 1, MT4, 96 h, MT4 cells, cell titer glo readout at 96 hours, 10 point dose response; read-out: HIV MT4 Assay IC50
The response must be a number in nM with no trailing unit.

Cc1nc2c(cc(-c3ccnc(N4CCC(N(C)C)CC4)c3)n2C)c(-c2cc(F)c3c(c2C)CCCO3)c1[C@H](OC(C)(C)C)C(=O)O (atropisomer, axis not shown) : 42.8

Quick check: IC50 of Cc1nc2c(cc(-c3ccnc(N4CCN(S(C)(=O)=O)CC4)c3)n2C)c(-c2cc(F)c3c(c2C)CCCO3)c1[C@H](OC(C)(C)C)C(=O)O (atropisomer, axis not shown) ? 19.6

Consider the compound shown here: Cc1nc2c(cc(-c3ccnc(N4CCCN(C5COC5)CC4)c3)n2C)c(-c2cc(F)c3c(c2C)CCCO3)c1[C@H](OC(C)(C)C)C(=O)O (atropisomer, axis not shown) What is its recorded IC50? 12.7
